# Test system: NCI-H460 lung
# measurement notes: NCI tumour cell line growth inhibition, 48 h
What TGI was measured for each of the following?

Query: What does the record list as TGI for N#CC1=C(c2ccccc2)NN(Cc2ccccc2)C(c2ccc(Cl)cc2)CC1=O (stereo not drawn) ?
Reply: 52.9 µM

Query: What does the record list as TGI for O=C(c1ccc(-c2ccccc2)cc1)N(Cc1cccnc1)C(=S)N(Cc1cccnc1)C(=O)c1ccc(-c2ccccc2)cc1 ?
Reply: > 100 µM

Query: What does the record list as TGI for C/C(=N\N)C(CN1CCCCC1)C(c1ccccc1)c1c(O)c2ccccc2oc1=O (stereo not drawn) ?
Reply: > 100 µM

Query: What does the record list as TGI for CC(C)(c1ccccc1)c1ccc(Oc2ccc3c(c2)-c2nc-3nc3[nH]c(nc4nc(nc5[nH]c(n2)c2ccc(Oc6ccc(C(C)(C)c7ccccc7)cc6)cc52)-c2cc(Oc5ccc(C(C)(C)c6ccccc6)cc5)ccc2-4)c2ccc(Oc4ccc(C(C)(C)c5ccccc5)cc4)cc32)cc1 ?
Reply: > 100 µM

Query: What does the record list as TGI for CN(C)c1ccc(/C=N/NC(=O)CSc2nc3sc4c(c3c(=O)n2-c2ccccc2)CCCCC4)cc1 ?
Reply: 4.86 µM

Query: What does the record list as TGI for CC1(OCc2ccccc2)C(=O)N2C1N(C(=O)OCc1ccccc1)CC2(C)C (stereo not drawn) ?
Reply: > 100 µM

Query: What does the record list as TGI for O=C(/C=C/c1ccc[nH]1)c1ccccc1 ?
Reply: > 100 µM

Query: What does the record list as TGI for CCCCCCCC(=O)SCC/C=C/[C@@H]1CC(=O)NCc2cccc(n2)C2=N[C@@](C)(CS2)C(=O)N[C@@H](C(C)C)C(=O)O1 ?
Reply: > 33.3 µM

---

# Test system: NCI/ADR-RES ovarian
# measurement notes: NCI tumour cell line growth inhibition, 48 h; in the data active means GI50 below about 0.43 µM; inactive means the rest
Permitted responses: YES (active), NO (inactive)

Query: In this assay, the call recorded for CC(C)C[C@H](NC(=O)[C@H](Cc1ccccc1)NC(=O)c1cnccn1)B(O)O was what?
Reply: YES

Query: In this assay, the call recorded for CCN(CC)c1ccc(CNc2cc(C)nc3ccc(OC)cc23)cc1 was what?
Reply: NO

Query: In this assay, the call recorded for OCCNC(=S)Nc1ccc(-c2nc(N3C[C@H]4CC[C@@H](C3)O4)c3cccn3n2)cc1 was what?
Reply: YES

Query: In this assay, the call recorded for O=c1ncc(I)c[nH]1 was what?
Reply: NO

Query: In this assay, the call recorded for Nc1c(C(=O)c2cccc(C(O)(CO)CO)c2)cnn1-c1ccc(F)cc1 was what?
Reply: NO

Query: In this assay, the call recorded for COc1ccccc1CN=C1NC(=O)/C(=C/c2ccc3ncccc3c2)S1 was what?
Reply: NO

Query: In this assay, the call recorded for COc1ccc2nc(-c3ccc(Cl)cc3)cc(-c3nnc(SCC(=O)Nc4ccc(/C(C)=N\O)cc4)o3)c2c1 was what?
Reply: NO

Query: In this assay, the call recorded for C/C(=N\NC(=O)c1cccc(S(=O)(=O)N2CCN(C)CC2)c1)c1cc(Cl)ccc1O was what?
Reply: NO

Query: In this assay, the call recorded for C[C@]12CC/C(=N\O)C[C@@H]1CC[C@@H]1[C@@H]2CC[C@]2(C)/C(=N/O)CC[C@@H]12 was what?
Reply: NO

Query: In this assay, the call recorded for O=c1[nH]ccc2nc(N3CCC(O)CC3)nc(Nc3ccc(N4CCOCC4)cc3)c12 was what?
Reply: NO

Query: In this assay, the call recorded for CC[C@]12C=CCN3CC[C@@]4(c5ccc(OC)cc5N(C)[C@H]4[C@@](O)(C(=O)OC)[C@@H]1OC(=O)CCCC[P+](c1ccccc1)(c1ccccc1)c1ccccc1)[C@@H]32 was what?
Reply: NO

Query: In this assay, the call recorded for COc1ccc(-c2c(-c3cc4c(c(OC)c3OC)OCO4)noc2N)cc1 was what?
Reply: YES

Query: In this assay, the call recorded for COc1cc(/C=C/C(=O)c2ccc(F)cc2)ccc1OCCCCOc1cc2c(cc1OC)C(=O)N1CCCC1C=N2 (stereo not given) was what?
Reply: NO

Query: In this assay, the call recorded for COc1ccc2c(c1)C(=O)c1c-2n(CCCCl)c(=O)c2cc([N+](=O)[O-])ccc12 was what?
Reply: YES

Query: In this assay, the call recorded for C=CC1CC12C(=O)C1OC2(C)C2C(=O)c3c(O)cccc3C(=O)C12 (stereo not given) was what?
Reply: NO
